- protocol: Hemolytic activity against human RBC after 1 hr
- Type: ADME, cell-based, Erythrocyte
- details: human red blood cells (erythrocytes)
Task for the reader: assign each of the following compounds its reported HC50 at 1 h.
Write the number in µM without appending the unit.

*Q* HC50 at 1 h lookup needed for `O=[N+]([O-])c1cccc2c1ccn2CCC[P+](c1ccccc1)(c1ccccc1)c1ccccc1.[I-]` , thanks.
*A* 230

*Q* What value of HC50 at 1 h has been recorded for this entry: `O=[N+]([O-])c1cccc2c1ccn2CCCCC[P+](c1ccccc1)(c1ccccc1)c1ccccc1.[I-]`
*A* 196

* * *

So I've got a bunch of compounds here, and I need their MBC99 values.
- Tested on: Mycobacterium tuberculosis
- protocol: Bactericidal activity against Mycobacterium bovis BCG ATCC 35734 assessed as reduction in colony forming units after 5 days
- Type: functional, BCG str. ATCC 35743
Form entry: value (µM) — number only.

*Q* What does the record list as MBC99 for `O=[N+]([O-])c1cccc2c1ccn2CCC[P+](c1ccccc1)(c1ccccc1)c1ccccc1.[I-]` ?
*A* 25

*Q* # MBC99 lookup, item `COc1cccc2ccn(CCCCC[P+](c3ccccc3)(c3ccccc3)c3ccccc3)c12.[I-]`
*A* 3

*Q* For the compound shown here, `COc1cccc2ccn(CCC[P+](c3ccccc3)(c3ccccc3)c3ccccc3)c12.[I-]` , give the reported MBC99.
*A* 13

*Q* If you can, please state the reported MBC99 value of `O=[N+]([O-])c1cccc2c1ccn2CCCCC[P+](c1ccccc1)(c1ccccc1)c1ccccc1.[I-]` .
*A* 3

* * *

- Tested on: Mycobacterium tuberculosis
- protocol: Antibacterial activity against Mycobacterium bovis BCG ATCC 35734 after 5 days by broth dilution method
- Format: functional
- details: BCG str. ATCC 35743, 120 h
I'd be grateful if you could share measured MIC50 for these entries.
Return type: number; implicit unit µM.

*Q* Can you look up the measured MIC50 of `COc1ccc2ccn(CCCCC[P+](c3ccccc3)(c3ccccc3)c3ccccc3)c2c1` for me?
*A* 4

*Q* Would you mind telling me what MIC50 value was observed for `COc1ccc2c(ccn2CCC[P+](c2ccccc2)(c2ccccc2)c2ccccc2)c1` ?
*A* 10

*Q* What measured MIC50 goes with `Fc1ccc2c(ccn2CCCCC[P+](c2ccccc2)(c2ccccc2)c2ccccc2)c1` ?
*A* 3

*Q* Field request: MIC50 | item: `c1ccc([P+](CCCCCn2ccc3ccccc32)(c2ccccc2)c2ccccc2)cc1`
*A* 4.3

*Q* Would you mind telling me what MIC50 value was observed for `Fc1ccc2ccn(CCCCC[P+](c3ccccc3)(c3ccccc3)c3ccccc3)c2c1` ?
*A* 3

*Q* So what does the record say about MIC50 for `COc1cccc2c1ccn2CCCCC[P+](c1ccccc1)(c1ccccc1)c1ccccc1` ?
*A* 3

*Q* I would be grateful if you could share the reported MIC50 for `COc1ccc2c(ccn2CCCCC[P+](c2ccccc2)(c2ccccc2)c2ccccc2)c1` .
*A* 5

*Q* Need MIC50, item `CCCCCCCCCC[P+](c1ccccc1)(c1ccccc1)c1ccccc1`
*A* 3.9

*Q* Form field: reported MIC50 of `COc1cccc2ccn(CCC[P+](c3ccccc3)(c3ccccc3)c3ccccc3)c12.[I-]`
*A* 4

*Q* Query (molecule): `O=[N+]([O-])c1ccc2c(ccn2CCC[P+](c2ccccc2)(c2ccccc2)c2ccccc2)c1` ; field requested: MIC50
*A* 9

* * *

- Test system: Mycobacterium tuberculosis
- protocol: Antibacterial activity against Mycobacterium bovis BCG ATCC 35734 after 5 days by broth dilution method
- Assay type: functional
- details: BCG str. ATCC 35743, 120 h
Answer each item with its documented MIC50.
Write the value in µM as a bare number.

*Q* For Mycobacterium tuberculosis, provide MIC50 of `c1ccc(CCCCCC[P+](c2ccccc2)(c2ccccc2)c2ccccc2)cc1` please.
*A* 5.2

*Q* Test system Mycobacterium tuberculosis; read-out MIC50; what value for `COc1ccc2ccn(CCC[P+](c3ccccc3)(c3ccccc3)c3ccccc3)c2c1` ?
*A* 7

*Q* Could you share what MIC50 was measured for `Fc1cccc2c1ccn2CCCCC[P+](c1ccccc1)(c1ccccc1)c1ccccc1` , tested on Mycobacterium tuberculosis?
*A* 3

*Q* Lookup: MIC50 / Mycobacterium tuberculosis / `O=[N+]([O-])c1ccc2ccn(CCC[P+](c3ccccc3)(c3ccccc3)c3ccccc3)c2c1`
*A* 7

*Q* Form: Entry = `COc1cccc2ccn(CCCCC[P+](c3ccccc3)(c3ccccc3)c3ccccc3)c12.[I-]` | System = Mycobacterium tuberculosis | MIC50 = ____
*A* 2

*Q* # value lookup — system Mycobacterium tuberculosis, readout MIC50, item `Fc1cccc2ccn(CCC[P+](c3ccccc3)(c3ccccc3)c3ccccc3)c12`
*A* 5

*Q* Given the entry `COc1cccc2c1ccn2CCC[P+](c1ccccc1)(c1ccccc1)c1ccccc1` , what MIC50 was observed with Mycobacterium tuberculosis?
*A* 6

*Q* Recall the recorded MIC50 for `O=[N+]([O-])c1ccc2c(ccn2CCCCC[P+](c2ccccc2)(c2ccccc2)c2ccccc2)c1` with Mycobacterium tuberculosis and state it.
*A* 3

*Q* Any idea what MIC50 came out for `Fc1ccc2c(ccn2CCC[P+](c2ccccc2)(c2ccccc2)c2ccccc2)c1` on Mycobacterium tuberculosis?
*A* 8

*Q* Notebook entry, Mycobacterium tuberculosis assay: MIC50 of `Fc1ccc2ccn(CCC[P+](c3ccccc3)(c3ccccc3)c3ccccc3)c2c1` = ?
*A* 6

*Q* Can you look up MIC50 on Mycobacterium tuberculosis for `O=[N+]([O-])c1cccc2c1ccn2CCCCC[P+](c1ccccc1)(c1ccccc1)c1ccccc1.[I-]` ?
*A* 2

*Q* Lab note: need MIC50 for `Fc1cccc2ccn(CCCCC[P+](c3ccccc3)(c3ccccc3)c3ccccc3)c12` on Mycobacterium tuberculosis, anyone have it?
*A* 3

*Q* API: value(readout=MIC50, system=Mycobacterium tuberculosis) for record `O=[N+]([O-])c1ccc2ccn(CCCCC[P+](c3ccccc3)(c3ccccc3)c3ccccc3)c2c1`
*A* 3

*Q* Query MIC50 on Mycobacterium tuberculosis for `CCCCC[P+](c1ccccc1)(c1ccccc1)c1ccccc1`
*A* 28

*Q* Notebook: pull reported MIC50 for Mycobacterium tuberculosis, entry `Fc1cccc2c1ccn2CCC[P+](c1ccccc1)(c1ccccc1)c1ccccc1`
*A* 6

*Q* Checklist item: MIC50 tested on Mycobacterium tuberculosis, entry `O=[N+]([O-])c1cccc2ccn(CCC[P+](c3ccccc3)(c3ccccc3)c3ccccc3)c12` , value?
*A* 2

*Q* Give Mycobacterium tuberculosis MIC50 for `O=[N+]([O-])c1cccc2c1ccn2CCC[P+](c1ccccc1)(c1ccccc1)c1ccccc1.[I-]`
*A* 5

*Q* Requested read-out MIC50, target or system Mycobacterium tuberculosis, entry `O=[N+]([O-])c1cccc2ccn(CCCCC[P+](c3ccccc3)(c3ccccc3)c3ccccc3)c12`
*A* 1
